Attribution: patent US8680159B2

assay_system: human B1R receptor (CHO K1 cells stably transfected with the human B1R gene) (Homo sapiens, UniProt P46663)
Construct: expressed in transfected cells; host or cells: CHO K1 cells (Chinese hamster ovary), stably transfected
Sequence (P46663 whole entry): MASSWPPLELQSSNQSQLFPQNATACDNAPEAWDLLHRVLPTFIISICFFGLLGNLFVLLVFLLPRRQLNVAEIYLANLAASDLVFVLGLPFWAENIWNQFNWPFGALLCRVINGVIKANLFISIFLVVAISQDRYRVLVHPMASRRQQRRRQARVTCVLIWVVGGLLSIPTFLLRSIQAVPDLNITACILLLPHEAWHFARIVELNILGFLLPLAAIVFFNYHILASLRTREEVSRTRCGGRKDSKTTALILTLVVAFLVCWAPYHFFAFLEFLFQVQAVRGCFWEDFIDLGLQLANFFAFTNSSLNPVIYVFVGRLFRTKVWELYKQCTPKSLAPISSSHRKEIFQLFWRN
protocol_text: Functional study on the bradykinin receptor 1 (B1R), Ca2+ fluorescence (Fluo-4) FLIPR/Novostar assay, hB1R cells
Format: cell-based
run_parameters: CHO-K1, read-out: % inhibition (human B1R) at 10 μM
recorded_endpoint: inhibition at 10 µM (%)

// solved cases for inhibition at 10 µM follow
1. Cc1cc(N2CCC(N(C)C(=O)c3ccc4c(c3)[C@H](NC(=O)CC(C)C(C)C)CC4)CC2)nc(C)n1 (stereo partly drawn) = 96
2. Cc1cc(N2CCC(N(C)C(=O)c3ccc4c(c3)[C@H](NC(=O)c3ccccc3C)CC4)CC2)nc(C)n1 = 100

1: Cc1cc(N2CCC(N(C)C(=O)c3cc4c(cc3F)[C@H](NC(=O)c3ccccc3Cl)CC4)CC2)ncn1
2: O=C(NC1CCN(c2ccc(C(F)(F)F)cn2)C1)c1ccc2c(c1)[C@H](NC(=O)c1ccccc1Cl)CC2 (stereo partly drawn)
3: COc1ccc(N2CCC(N(C)C(=O)c3ccc4c(c3)[C@H](NC(=O)c3ccccc3Cl)CC4)CC2)cn1
In: Please list these in order of increasing inhibition at 10 µM. Thank you! Output spec: a listing of the labels in the requested order.
Out: 3, 2, 1

1: Cc1cc(N2CCC(N(C)C(=O)c3ccc4c(c3)[C@H](N(C(=O)c3ccccc3Cl)C(C)C)CC4)CC2)nc(C)n1
2: Cc1cc(N2CCC(N(C)C(=O)c3cc4c(cc3F)CC[C@H]4N(C(=O)c3cccnc3C(F)(F)F)C(C)C)CC2)nc(C)n1
In: Which item exceeds the other in inhibition at 10 µM, 1 or 2 ? Write down the label of the entry you select.
Out: 1

1: CNc1nccc(N2CCC(N(C)C(=O)c3ccc4c(c3)[C@H](NC(=O)c3ccccc3Cl)CC4)CC2)n1
2: CC(C)CC(=O)N[C@@H]1CCc2cc(C(=O)N(C)C3CCN(c4ccncc4)CC3)ccc21
In: Between item 1 and item 2 , which reported inhibition at 10 µM is smaller? Write down the label of the entry you select.
Out: 2

====

assay_system: human B1R receptor (CHO K1 cells stably transfected with the human B1R gene) (Homo sapiens)
Construct: expressed in transfected cells; host or cells: CHO K1 cells (Chinese hamster ovary), stably transfected
protocol_text: Functional study on the bradykinin receptor 1 (B1R), Ca2+ fluorescence (Fluo-4) FLIPR/Novostar assay, hB1R cells
Format: cell-based
run_parameters: CHO-K1, read-out: % inhibition (human B1R) at 10 μM
recorded_endpoint: inhibition at 10 µM (%)

1. O=C(NC1CCN(c2ccncc2)CC1)c1ccc2c(c1)[C@H](NC(=O)c1ccccc1Cl)CC2 = 43
2. CN(C(=O)c1ccc2c(c1)[C@H](NC(=O)C1CCc3ccccc31)CC2)C1CCN(c2ccncc2)CC1 (stereo partly drawn) = 100
3. Cc1cc(N2CCC(N(C)C(=O)c3ccc4c(c3)[C@H](N(C)C(=O)c3cccnc3C(F)(F)F)CC4)CC2)nc(C)n1 = 100
4. Cc1cc(N2CCC(N(C)C(=O)c3ccc4c(c3)[C@H](N(C)C(=O)c3ccccc3Cl)CC4)CC2)nc(C)n1 = 100
5. CN(C(=O)c1ccc2c(c1)[C@H](NC(=O)c1ccccc1Cl)CC2)C1CCC(c2ccncc2)CC1 (stereo partly drawn) = 32
6. Cc1cc(N2CCC(N(C)C(=O)c3ccc4c(c3)[C@H](N(C(=O)c3cccnc3C(F)(F)F)C(C)C)CC4)CC2)nc(C)n1 = 44
7. CN(C(=O)c1ccc2c(c1)[C@H](NC(=O)CC(F)(F)F)CC2)C1CCN(c2ccncc2)CC1 = 100
8. CN(C(=O)c1ccc2c(c1)CC[C@H]2N1Cc2cccc(Cl)c2C1=O)C1CCN(Cc2ccnc(N3CCCC3)c2)CC1 = 56
9. CN(C(=O)c1ccc2c(c1)[C@H](N(C)C(=O)c1cccc(F)c1Cl)CC2)C1CCN(c2ccncc2)CC1 = 100
10. CN(C(=O)c1ccc2c(c1)[C@H](NC(=O)c1ccccc1Cl)CC2)C1CCN(CC(=O)N2CCCC2)CC1 = 47

a: O=C(NCC1CCN(c2ccncc2)CC1)c1ccc2c(c1)[C@H](NC(=O)c1ccccc1Cl)CC2
b: Cc1cc(N2CCC(N(C)C(=O)c3cc4c(cc3F)[C@H](N3Cc5cccc(Cl)c5C3=O)CC4)CC2)nc(C)n1
In: Which item exceeds the other in inhibition at 10 µM, a or b ? Write down the label of the entry you select.
Out: b
